// values below are reported Ki
Target: Human Tissue Kallikrein (Homo sapiens)
Sequence (P06870 25-262): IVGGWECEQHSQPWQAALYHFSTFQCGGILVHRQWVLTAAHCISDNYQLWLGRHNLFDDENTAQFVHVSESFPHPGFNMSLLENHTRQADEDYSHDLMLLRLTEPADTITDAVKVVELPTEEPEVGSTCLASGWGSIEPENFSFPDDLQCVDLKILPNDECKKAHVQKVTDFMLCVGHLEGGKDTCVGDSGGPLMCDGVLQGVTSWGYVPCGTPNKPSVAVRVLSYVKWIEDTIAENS

{"columns": ["Compound string", "Inequality operator", "Ki, µM"],
 "data": [
  ["CCOc1ccc(C[C@@H](NS(=O)(=O)c2ccccc2)C(=O)N[C@@H](Cc2ccccc2)C(=O)NC2CCN(C(=N)N)CC2)cc1", "=", 6.8],
  ["CCOc1ccc(C[C@@H](N)C(=O)N[C@H](C(=O)NC2CCN(C(=N)N)CC2)[C@H](O)c2ccccc2)cc1.O=C(O)C(F)(F)F", ">", 70],
  ["CCOc1ccc(C[C@@H](N)C(=O)N[C@@H](Cc2ccccc2)C(=O)NC2CCN(C(=N)N)CC2)cc1.O=C(O)C(F)(F)F", "=", 45]
]}
